- Test system: WKYMVM-stimulated human neutrophils (FPR2 agonist WKYMVM)
- protocol: Inhibition of WKYMVM-induced [Ca2+]i
- Format: cell-based
- cond: Homo sapiens, Neutrophil; pure compounds; 10 min pretreatment, 5 nM WKYMVM; read-out: Inhibition of [Ca^2+]i WKYMVM-Induced IC50
measured.attribute: IC50

• CC12CCC(CC1)C(C)(C)O2 = > 55 µM
• COc1cc(O)c(C(C)=O)c(OC)c1 = 52.7 µM
• CC1(C)[C@H]2CC[C@]1(C)C(=O)C2 [(−)-Camphor] = > 55 µM

Now for a further compound.
Can you share its IC50? I mean this compound: CC1=CC(=O)C(C(C)C)CC1 (stereo not shown)
> 55 µM
